Measured On: T1, human-CD40-monomer protein (human, UniProt P25942 21-193, limits assumed)
T1 construct: Soluble monomer generated in house, used as SPR analyte; also called hCD40; hCD40-monomer
Procedure Text: SPR, Ab captured on protein A, hCD40 monomer 500 and 50 nM, 1:1 fit; supernatant
Recorded Endpoint: kon (M⁻¹ s⁻¹)
Report the figure in M⁻¹ s⁻¹ without appending any unit label.

Y12XX-hz31 (antibody, human IgG1, kappa, V domains shown, Humanized, IgG1-P238K; supernatant sample) VH: QVQLVQSGAEVKKPGSSVKVSCKASGYAFTSYWMHWVRQRPGQGLEWIGFINPTTGYSEYNQKFKDRVTITADKSTSTAYMELNSLRSEDTAVYYCARWGLPPFAYWGQGTLVTVSS VL: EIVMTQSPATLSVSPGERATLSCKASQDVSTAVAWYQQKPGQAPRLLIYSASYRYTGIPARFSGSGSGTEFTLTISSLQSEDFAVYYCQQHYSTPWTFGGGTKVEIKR    41000
Y12XX-hz4 (antibody, human IgG1, kappa, V domains shown, Humanized, IgG1-P238K; supernatant sample) VH: QVQLVQSGAEVKKPGSSVKVSCKASGYAFTSYWMHWVRQAPGQGLEWMGYINPTTGYSAYNQKFKDKATLTADKSTSTAYMELSSLRSEDTAVYYCARWDPRPFAYWGQGTLVTVSS VL: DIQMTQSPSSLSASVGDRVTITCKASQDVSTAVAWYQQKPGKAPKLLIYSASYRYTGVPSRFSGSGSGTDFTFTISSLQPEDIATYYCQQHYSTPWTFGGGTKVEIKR    460000

Note: attention shifts to another entry.
Return reported kon; argument: Y12XX-hz32 (antibody, human IgG1, kappa, V domains shown, Humanized, IgG1-P238K; supernatant sample) VH: QVQLVQSGAEVKKPGSSVKVSCKASGYAFTSYWMHWVRQAPGQGLEWMGYINPTTGYSAYNQKFKDKATLTADKSTSTAYMELSSLRSEDTAVYYCARWDPRPFAYWGQGTLVTVSS VL: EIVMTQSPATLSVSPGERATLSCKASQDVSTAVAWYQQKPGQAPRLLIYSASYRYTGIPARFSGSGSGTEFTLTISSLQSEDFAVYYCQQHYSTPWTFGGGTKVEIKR
290000
